# Tested on: HEK-293T
# Measurement protocol: Multiplex assay against HEK293T
# Type: toxicity, cell-based
# Applied conditions: human, 48 h, 10 µM, compound concentration 10 uM, replicate 1
Non-standard residues stand in square brackets, D forms with d. Residues, ends and D or L forms follow the SMILES beside them.
Readout: Population Membrane Permeable-Phenotype (%)
Use % as the unit, but write only the number.

Record request: Population Membrane Permeable-Phenotype (%) value, item CCCCCCNC(=O)Nc1ccc(S(=O)(=O)Nc2ccc(CCNC[C@H](O)COc3ccc(O)cc3)cc2)cc1
1

Record request: Population Membrane Permeable-Phenotype (%) value, item COc1cc(OC2CCN(C(C)=O)CC2)ccc1C(=O)N1CCC(N2C(=O)OCc3ccccc32)CC1
0

Record request: Population Membrane Permeable-Phenotype (%) value, item CCC(=O)OCC(=O)[C@@]1(OC(=O)CC)[C@@H](C)C[C@H]2[C@@H]3CCC4=CC(=O)C=C[C@]4(C)[C@@]3(Cl)[C@@H](O)C[C@@]21C [BECLOMETHASONE DIPROPIONATE]
0

Record request: Population Membrane Permeable-Phenotype (%) value, item O=C(NCCNCC(O)COc1ccc(O)cc1)N1CCOCC1.O=C(NCCNCC(O)COc1ccc(O)cc1)N1CCOCC1.O=C(O)/C=C/C(=O)O (stereo unspecified) [XAMOTEROL FUMARATE]
1

Record request: Population Membrane Permeable-Phenotype (%) value, item CC(C)C[C@@H]1NC(=O)[C@@H](C(C)C)NC(=O)[C@@H]2CCCN2C(=O)[C@@H](CC(=O)O)NC(=O)[C@@H](Cc2c[nH]c3ccccc23)NC1=O [BQ-123] (cyclo(L[dW][dD]P[dV]))
1

Record request: Population Membrane Permeable-Phenotype (%) value, item COC(c1ccccc1)(c1ccccc1)[C@H](Oc1nc(C)cc(C)n1)C(=O)O
1

* * *

Consider the following molecules; for each one, report its Population Membrane Permeable-Phenotype (%).
# Test system: U2OS
# Measurement protocol: Multiplex assay against U2OS
# Type: toxicity, cell-based
# Applied conditions: human, 48 h, 10 µM, compound concentration 10 uM, replicate 1
Non-standard residues stand in square brackets, D forms with d. Residues, ends and D or L forms follow the SMILES beside them.

Record request: Population Membrane Permeable-Phenotype (%) value, item COc1ccc2[nH]c(I)c(CCNC(C)=O)c2c1
5%

Record request: Population Membrane Permeable-Phenotype (%) value, item COCCn1c(C)c(C)s/c1=N\C(=O)C1C(C)(C)C1(C)C
11%

Record request: Population Membrane Permeable-Phenotype (%) value, item COc1cc(OC2CCN(C(C)=O)CC2)ccc1C(=O)N1CCC(N2C(=O)OCc3ccccc32)CC1
5%

Record request: Population Membrane Permeable-Phenotype (%) value, item CCn1c(-c2nc3cc(C(=O)N4CCCC(N)C4)ccc3n2C)cc2ccccc21.Cl (stereo not given)
23%

Record request: Population Membrane Permeable-Phenotype (%) value, item OCCCNc1cc(-c2ccnc(Nc3cccc(Cl)c3)n2)ccn1
43%

Record request: Population Membrane Permeable-Phenotype (%) value, item Cc1cc(=O)n(C)c2cc(N3C(=O)CC[C@H](NS(=O)(=O)CC(C)C)[C@H]3c3ccc(Cl)cc3)ccc12
15%

Record request: Population Membrane Permeable-Phenotype (%) value, item COc1cc2nc(N3CCN(C(=O)c4ccco4)CC3)nc(N)c2cc1OC.Cl [PRAZOSIN HYDROCHLORIDE]
5%

Record request: Population Membrane Permeable-Phenotype (%) value, item S=C(NCCCc1c[nH]cn1)NCCCN(Cc1ccc(Cl)c(Cl)c1)c1ccc(Br)cn1
46%

Record request: Population Membrane Permeable-Phenotype (%) value, item O=c1nc2[nH]c3ccccc3nc-2c(=O)[nH]1
5%

Record request: Population Membrane Permeable-Phenotype (%) value, item Cn1cc(C(=O)OCC2CCN(CCNS(C)(=O)=O)CC2)c2ccccc21
9%

Record request: Population Membrane Permeable-Phenotype (%) value, item CC(C)C[C@H](CO)Nc1nc(S[C@@H](C)c2ccccc2)nc2nc(N)sc12
20%

Record request: Population Membrane Permeable-Phenotype (%) value, item O=C(Nc1cc(-c2ccccc2)nn1-c1ccccc1F)c1ccc([N+](=O)[O-])cc1
8%

Record request: Population Membrane Permeable-Phenotype (%) value, item Nc1nc(-c2ccco2)c2cnn(Cc3ccccc3F)c2n1
17%

Record request: Population Membrane Permeable-Phenotype (%) value, item Nc1nc(CC(=O)Nc2ccc(CCNC[C@H](O)c3ccccc3)cc2)cs1
5%

Record request: Population Membrane Permeable-Phenotype (%) value, item O=C(NCCNCC(O)COc1ccc(O)cc1)N1CCOCC1.O=C(NCCNCC(O)COc1ccc(O)cc1)N1CCOCC1.O=C(O)/C=C/C(=O)O (stereo not given) [XAMOTEROL FUMARATE]
2%

Record request: Population Membrane Permeable-Phenotype (%) value, item CCc1nn2c(C)cc(C)nc2c1Cc1ccc(-c2nnc(C3CCNCC3)o2)cc1
10%

Record request: Population Membrane Permeable-Phenotype (%) value, item Cc1nn(C)c2nc(NNC(=O)Nc3cc(Cl)nc(Cl)c3)cc(C(C)C)c12
51%

Record request: Population Membrane Permeable-Phenotype (%) value, item CC(C)C[C@@H]1NC(=O)[C@@H](C(C)C)NC(=O)[C@@H]2CCCN2C(=O)[C@@H](CC(=O)O)NC(=O)[C@@H](Cc2c[nH]c3ccccc23)NC1=O [BQ-123] (cyclo(L[dW][dD]P[dV]))
5%

Record request: Population Membrane Permeable-Phenotype (%) value, item CN(C)C/C=C/C(=O)Nc1ccc(C(=O)N2CCCC(Nc3ncc(Cl)c(-c4c[nH]c5ccccc45)n3)C2)cc1 (stereo not given)
47%

Record request: Population Membrane Permeable-Phenotype (%) value, item C[C@@H]1CC(=O)Nc2cccc(-c3ccc4c(c3)c(-c3cnn(C)c3)nn4C)c2N1
8%

Record request: Population Membrane Permeable-Phenotype (%) value, item Cc1sc2c(c1C)C(c1ccc(Cl)cc1)=N[C@H](CC(=O)OC(C)(C)C)c1nnc(C)n1-2
11%

Record request: Population Membrane Permeable-Phenotype (%) value, item CN1CCN(c2ccc(Nc3c4ccccc4nc4ccccc34)cc2)CC1.Cl.Cl.O
91%

Record request: Population Membrane Permeable-Phenotype (%) value, item CCCCCCNC(=O)Nc1ccc(S(=O)(=O)Nc2ccc(CCNC[C@H](O)COc3ccc(O)cc3)cc2)cc1
7%

Record request: Population Membrane Permeable-Phenotype (%) value, item O=C(O)CCC/C=C\CC1C(O)CC(O)C1/C=C/C(O)COc1cccc(Cl)c1 (stereo not given)
6%

Record request: Population Membrane Permeable-Phenotype (%) value, item COCCCN1CCC(NC(=O)c2cc(Cl)c(N)c3c2OCC3)CC1 [PRUCALOPRIDE]
5%

Reference source: ChEMBL document CHEMBL5058577
